experiment: NIH-3T3 fibroblast cytotoxicity, dose response, cytotoxicity control, cell-based, fluorescence, Alamar Blue, secondary assay (AID 2327); assay type: functional;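 further: NIH-3T3 mouse fibroblasts cultured with fluconazole at 8 µg/mL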
Calls of active or inactive are those of the source.
Parameter: EC50

Substance smiles	Reported result
Cc1nn(-c2ccccc2)c(C)c1C(=O)OC/C(O)=C(\C#N)c1nc2ccccc2[nH]1	> 150 µM (inconclusive)
COc1ccc(-n2nc(C(=O)NCC(=O)NCCC3=CCCCC3)c3ccccc3c2=O)c(OC)c1	> 150 µM (inactive)
O=[N+]([O-])c1ccc(N2CCN(Cc3ccc([N+](=O)[O-])o3)CC2)cc1	> 150 µM (inactive)
O=C(Cn1c2ccc(F)cc2c2nc3n(c(=O)c21)CCS3)N1CCCC1	> 160 µM (inactive)

Turning to the following compound.
*Q* Specify reported EC50 for the compound shown: "O=C(NNC1=C(C(=O)C(F)(F)F)CCC1)c1ccc(Br)cc1"
*A* > 75 µM (inactive)

###

test: cells; type: functional, cell-based
Active and inactive are the calls of the source.
The reader will find reported EC50 values listed item by item below.

*Q* Specify reported EC50 for the compound shown: "COc1ccc(OC)c(C2=Nn3c(nnc3-c3cc(C)[nH]n3)SC2)c1"
*A* > 350 µM (not active)

*Q* Specify reported EC50 for the compound shown: "CCOc1cccc(-c2c(C(=O)N/N=C(\C)c3ccccn3)nnn2-c2nonc2N)c1"
*A* 6.32 µM (active)

*Q* Specify reported EC50 for the compound shown: "COc1ccc2oc(=O)c(C(=O)NC3CCCCCC3)cc2c1"
*A* > 350 µM (not active)

*Q* Specify reported EC50 for the compound shown: O=C1C=C(c2ccccc2)CC(c2cccs2)C1n1cnc([N+](=O)[O-])c1 (centres undefined)
*A* > 350 µM (not active)

###

molecular target: Rho-associated protein kinase 1 (Homo sapiens, UniProt Q13464); type: functional;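 further: measured within a broad kinome-wide panel profiling many kinases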
Sequence (Q13464 whole entry): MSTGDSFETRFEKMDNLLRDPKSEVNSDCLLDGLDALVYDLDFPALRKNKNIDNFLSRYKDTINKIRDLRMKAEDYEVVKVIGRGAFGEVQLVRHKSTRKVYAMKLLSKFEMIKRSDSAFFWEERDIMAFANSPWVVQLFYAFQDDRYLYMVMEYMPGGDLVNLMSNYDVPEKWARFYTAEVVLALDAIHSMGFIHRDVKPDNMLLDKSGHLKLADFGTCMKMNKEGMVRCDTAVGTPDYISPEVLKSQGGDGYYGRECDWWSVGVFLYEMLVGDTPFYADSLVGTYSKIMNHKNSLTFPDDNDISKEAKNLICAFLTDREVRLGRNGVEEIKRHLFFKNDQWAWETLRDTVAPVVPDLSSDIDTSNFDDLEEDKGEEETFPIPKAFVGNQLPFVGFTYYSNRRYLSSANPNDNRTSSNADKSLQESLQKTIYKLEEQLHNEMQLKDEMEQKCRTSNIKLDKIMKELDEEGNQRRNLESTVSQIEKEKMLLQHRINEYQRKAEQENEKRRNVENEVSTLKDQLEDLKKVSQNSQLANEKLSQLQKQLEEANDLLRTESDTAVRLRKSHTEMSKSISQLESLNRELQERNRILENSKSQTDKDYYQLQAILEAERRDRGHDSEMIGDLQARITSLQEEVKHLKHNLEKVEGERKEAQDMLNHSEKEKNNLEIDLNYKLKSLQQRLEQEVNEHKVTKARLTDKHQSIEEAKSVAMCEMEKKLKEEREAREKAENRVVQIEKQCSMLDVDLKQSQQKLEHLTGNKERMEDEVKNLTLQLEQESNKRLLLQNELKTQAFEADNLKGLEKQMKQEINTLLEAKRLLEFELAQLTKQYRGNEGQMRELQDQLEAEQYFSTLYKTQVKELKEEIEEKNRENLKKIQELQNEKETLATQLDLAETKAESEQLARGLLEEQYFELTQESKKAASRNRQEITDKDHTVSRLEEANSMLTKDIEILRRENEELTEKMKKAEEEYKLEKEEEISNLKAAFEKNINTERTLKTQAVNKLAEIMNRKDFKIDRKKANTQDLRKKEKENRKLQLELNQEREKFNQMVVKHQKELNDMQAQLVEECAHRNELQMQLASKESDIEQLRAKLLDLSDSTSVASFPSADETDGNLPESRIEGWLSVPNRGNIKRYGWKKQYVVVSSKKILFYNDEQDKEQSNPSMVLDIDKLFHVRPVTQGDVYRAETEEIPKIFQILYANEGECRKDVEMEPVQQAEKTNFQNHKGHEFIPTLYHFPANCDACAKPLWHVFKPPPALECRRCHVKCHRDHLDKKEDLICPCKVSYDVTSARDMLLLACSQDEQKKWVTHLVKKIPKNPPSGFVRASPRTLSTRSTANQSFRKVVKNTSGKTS
Active and inactive are the calls of the source.
Pick one and only one: class 1 (active), class 0 (inactive)

Consider the worked cases shown below.
Compound	Measurement target	Class assignment
CCCCC(=O)Nc1cc(-c2c[nH]c3ncccc23)cc(Cl)n1	Rho-associated protein kinase 1 (Homo sapiens, UniProt Q13464)	class 0
Oc1ccc(-c2nc(-c3ccncc3)c(-c3ccc(F)cc3)[nH]2)cc1	Rho-associated protein kinase 1 (Homo sapiens, UniProt Q13464)	class 0

*Q* Name the outcome recorded for COc1cccc(C(C)NC(=O)c2sc(-c3ccncc3)nc2C)c1 (centres undefined) in the assay.
*A* class 1

*Q* Name the outcome recorded for "O=C(Nc1ccc(CO)cc1)c1cnn2c(-c3ccccc3)ccnc12" in the assay.
*A* class 0

###

The reader will find reported IC50 values listed item by item below.
target: Protein skinhead-1 (Caenorhabditis elegans); format: functional
Sequence (P34707 whole entry): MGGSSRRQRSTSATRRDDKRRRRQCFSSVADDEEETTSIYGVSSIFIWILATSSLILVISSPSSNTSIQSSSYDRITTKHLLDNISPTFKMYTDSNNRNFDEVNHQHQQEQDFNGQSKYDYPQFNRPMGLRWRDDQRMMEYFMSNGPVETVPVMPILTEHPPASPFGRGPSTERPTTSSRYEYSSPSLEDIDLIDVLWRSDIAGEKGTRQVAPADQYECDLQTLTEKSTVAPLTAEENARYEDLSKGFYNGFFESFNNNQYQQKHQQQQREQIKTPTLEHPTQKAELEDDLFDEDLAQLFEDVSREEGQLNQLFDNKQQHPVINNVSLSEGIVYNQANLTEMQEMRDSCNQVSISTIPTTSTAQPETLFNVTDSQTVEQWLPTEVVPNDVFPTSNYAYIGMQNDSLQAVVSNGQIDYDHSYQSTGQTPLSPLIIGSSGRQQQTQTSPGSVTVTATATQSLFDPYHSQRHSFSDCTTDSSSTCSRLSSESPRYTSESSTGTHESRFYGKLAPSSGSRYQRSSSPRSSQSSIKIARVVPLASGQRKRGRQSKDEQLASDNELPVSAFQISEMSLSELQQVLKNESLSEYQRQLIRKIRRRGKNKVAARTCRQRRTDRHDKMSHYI
Activity calls are given as the source filed them.

Field: example entries. Status: answers known.
Molecule	IC50
O=C1Nc2ccccc2C(O)(C(=O)NCc2ccco2)N1c1ccc(Cl)c(Cl)c1 (stereo unspecified)	> 100 µM (inactive)
CCc1ccc(-n2c(SCC(=O)Nc3cc(C)[nH]n3)nc3nncc-3c2O)cc1	> 100 µM (inactive)
O=[N+]([O-])c1cccc2ccc(/C=C/c3ccc(F)cc3)nc12	> 100 µM (inactive)
Cc1ccc(C(=O)N(C)CC(=O)Nc2ccc(N3CCOCC3)cc2)s1	> 100 µM (inactive)

*Q* Specify reported IC50 for the molecule shown: "Nc1cc2c(cc1Cl)-c1ccccc1C2"
*A* 52.5 µM (inactive)

*Q* Specify reported IC50 for the molecule shown: "Fc1ccccc1-c1nc(-c2ccc(Br)o2)no1"
*A* > 100 µM (inactive)
